The reported measurements were obtained from patent US20210032312A1.

# ASSAYED_TARGET: T1, human CD8 alpha (CD8A) on primary human CD8+ T cells (human, UniProt P01732 22-235)
# T1 construct: whole, on cells; also called hCD8A
# T1 sequence (P01732 22-235): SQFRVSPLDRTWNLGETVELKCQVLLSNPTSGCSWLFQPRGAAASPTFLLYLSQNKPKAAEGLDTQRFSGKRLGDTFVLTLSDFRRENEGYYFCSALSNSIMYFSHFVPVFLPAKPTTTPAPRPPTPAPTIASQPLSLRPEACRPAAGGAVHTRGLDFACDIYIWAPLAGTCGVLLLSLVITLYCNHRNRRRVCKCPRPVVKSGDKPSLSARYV
# TEST_METHOD_NOTES: flow cytometry, human CD8+ T cells
ENDPOINT_NAME: Human T-cell Binding 2 uM (MFI)

binder="P283ER9P1365_E2 (designed binder, FN3 domain) LPAPKNLVVSRVTEDSARLSWTAPDAAFDSFYIPYRESEFRGEAIALPVPGSERSYDLTGLKPGTKYRVIIIGVKGGEFSQPLAAIFTT" readout_units=MFI experimental_value=20000

[1] P283DR9P1364_E8 (designed binder, FN3 domain) LPAPKNLVVSRVTEDSARLSWTAPDAAFDSFSIAYPEWPVHGEAIVLTVPGSERSYDLTGLKPGTEYFVIIYGVKGGVLSEPLSAIFTT
[2] P283HR7P1368_G10 (designed binder, FN3 domain) LPAPKNLVVSRVTEDSARLSWTAPDAAFDSFGIAYVEWWHRGEAISLPVPGSERSYDLTGLKPGTEYWVTILGVKGGIISTPLGASFTT
[3] P283FR9P1366_E11 (designed binder, FN3 domain) LPAPKNLVVSRVTEDSARLSWTAPDAAFDSFDIAYPEWPVPGEAIVLTVPGSERSYDLTGLKPGTEYWVIIKGVKGGNISWPLSAIFTT
[4] P283ER9P1365_F4 (designed binder, FN3 domain) LPAPKNLVVSRVTEDSARLSWTAPDAAFDSFYIPYRESEFRGEAIALPVPGSERSYDLTGLKPGTKYSVIIIGVKGGEFSQPLGAIFTT
Falling order of Human T-cell Binding 2 uM (MFI), please. List the labels in the requested order. 4, 1, 2, 3

[P] P283BR9P1363_G5 (designed binder, FN3 domain) LPAPKNLVVSRVTEDSARLSWYRATTPAPHFDSFLIQYQESEKVGEAIVLTVPGSERSYDLTGLKPGTEYTVSIYGVDVKWEGNRPVASNPLSAIFTT
[Q] P283FR9P1366_F8 (designed binder, FN3 domain) LPAPKNLVVSRVTEDSARLSWTAPDAAFDSFAIAYPEIAKWGEAIVLTVPGSERSYDLTGLKPGTEYFVIIYGVKGGVHSFPLSAIFTT
[R] P283FR9P1366_F5 (designed binder, FN3 domain) LPAPKNLVVSRVTEDSARLSWTAPDAAFDSFDIGYPEWPIKGEAIVLTVPGSERSYDLTGLKPGTEYWVIIWGVKGGDRSEPLSAIFTT
[S] P283FR9P1366_H10 (designed binder, FN3 domain) LPAPKNLVVSRVTEDSARLSWTAPDAAFDSFNIAYPEWPPEGEAIVLTVPGSERSYDLTGLKPGTEYFVVIYGVKGGHLSDPLSAIFTT
Falling order of Human T-cell Binding 2 uM (MFI), please. List the labels in the requested order. S, P, R, Q
(S: 25000 MFI, P: 14800 MFI, R: 6880 MFI, Q: 3970 MFI)
